These measurements were taken from ChEMBL document CHEMBL5154944.

Assay: Metabolic stability in human hepatocytes assessed as parent compound remaining measured after 1 hr by LC-MS/MS analysis
Type: ADME, cell-based, Hepatocyte
Conditions: read-out: Stability
Non-standard residues stand in square brackets, D forms with d. Residues, ends and D or L forms follow the SMILES beside them. *: point of attachment. Benzoyl(4-OPh(4-CONH2)) = NC(=O)c1ccc(Oc2ccc(C(=O)*)cc2)cc1; NMeE = CN[C@@H](CCC(=O)O)C(=O)O; β3hP = O=C(O)C[C@@H]1CCCN1; Dab = NCC[C@H](N)C(=O)O; Ava = NCCCCC(=O)O
reported-property: remaining at 1 h (%)
Field: numeric (%). Do not append units.

Problem: Determine from records and report remaining at 1 h for CC(C)C[C@H](NC(=O)[C@H](CCN)NC(=O)[C@H](CC(=O)O)NC(=O)[C@H](CCC(=O)O)NC(=O)CCCCNC(=O)c1ccc(Oc2ccc(C(N)=O)cc2)cc1)C(=O)N(C)[C@@H](CCC(=O)O)C(=O)N1CCC[C@H]1CC(N)=O ({Benzoyl(4-OPh(4-CONH2))-Ava}-ED[Dab]L[NMeE][β3hP]-NH2)
Result: 101
